Test system: HepG2
assayProcedure: MTT antiproliferation assay, HepG2
Type: cell-based
reportedConditions: Homo sapiens, 48 h, n = 3, read-out: IC50 ± SD HepG2
Could you please mark y for values of IC50 below 9 µM and n for values at or above it?

compound	groupLabel
Cc1ccc(C2=NN(c3ccc(S(N)(=O)=O)cc3)C(c3ccc4c(c3)OCO4)C2)c(C)c1 (centres unmarked)	n
NS(=O)(=O)c1ccc(N2N=C(c3ccc(I)cc3)CC2c2ccc3c(c2)OCO3)cc1 (centres unmarked)	y
NS(=O)(=O)c1ccc(N2N=C(c3ccccc3)CC2c2ccc3c(c2)OCCO3)cc1 (centres unmarked)	n
COc1cccc(C2=NN(c3ccc(S(N)(=O)=O)cc3)C(c3ccc4c(c3)OCCO4)C2)c1 (centres unmarked)	n
Cc1ccc(C2=NN(c3ccc(S(N)(=O)=O)cc3)C(c3ccc4c(c3)OCCO4)C2)cc1 (centres unmarked)	y

Q: Dear colleague, could you confirm whether IC50 of NS(=O)(=O)c1ccc(N2N=C(c3ccc(I)cc3)CC2c2ccc3c(c2)OCCO3)cc1 (centres unmarked) falls below 9 µM? Thanks.
A: y

Q: Dear colleague, could you confirm whether IC50 of NS(=O)(=O)c1ccc(N2N=C(c3ccccc3)CC2c2ccc3c(c2)OCO3)cc1 (centres unmarked) falls below 9 µM? Thanks.
A: y

---

Test system: HepG2
assayProcedure: MTT antiproliferation assay, HepG2
Format: cell-based
reportedConditions: Homo sapiens, 48 h, n = 3, read-out: IC50 ± SD HepG2
property: IC50
Form field: result (number plus unit)

Answered examples (3):
compound	IC50
Cc1ccc(C2=NN(c3ccc(S(N)(=O)=O)cc3)C(c3ccc4c(c3)OCCO4)C2)cc1C (stereo not drawn) [Compound 4s]	11.8 µM
CCOc1ccc(C2=NN(c3ccc(S(N)(=O)=O)cc3)C(c3ccc4c(c3)OCO4)C2)cc1 (stereo not drawn) [Compound 4c]	13.7 µM
NS(=O)(=O)c1ccc(N2N=C(c3ccc(F)cc3F)CC2c2ccc3c(c2)OCCO3)cc1 (stereo not drawn) [Compound 4z]	11.7 µM

Q: Give me measured IC50, please, for this compound: NS(=O)(=O)c1ccc(N2N=C(c3cc(F)cc(F)c3)CC2c2ccc3c(c2)OCCO3)cc1 (stereo not drawn) [Compound 4w]
A: 9.08 µM

Q: Give me measured IC50, please, for this compound: NS(=O)(=O)c1ccc(N2N=C(c3ccc(Cl)cc3)CC2c2ccc3c(c2)OCCO3)cc1 (stereo not drawn) [Compound 4p]
A: 8.16 µM

Q: Give me measured IC50, please, for this compound: NS(=O)(=O)c1ccc(N2N=C(c3ccccc3F)CC2c2ccc3c(c2)OCCO3)cc1 (stereo not drawn) [Compound 4y]
A: 15.4 µM

Q: Give me measured IC50, please, for this compound: Cc1ccc(C2=NN(c3ccc(S(N)(=O)=O)cc3)C(c3ccc4c(c3)OCO4)C2)cc1 (stereo not drawn) [Compound 4b]
A: 2.96 µM

Q: Give me measured IC50, please, for this compound: COc1ccc(C2=NN(c3ccc(S(N)(=O)=O)cc3)C(c3ccc4c(c3)OCCO4)C2)cc1 (stereo not drawn) [Compound 4m]
A: 9.44 µM

Q: Give me measured IC50, please, for this compound: NS(=O)(=O)c1ccc(N2N=C(c3cccc(F)c3)CC2c2ccc3c(c2)OCO3)cc1 (stereo not drawn) [Compound 4h]
A: 7.14 µM

---

Reported melting point values follow for various compounds

Q: Give me measured melting point, please, for this compound: NS(=O)(=O)c1ccc(N2N=C(c3ccc(I)cc3)CC2c2ccc3c(c2)OCO3)cc1 (stereo not drawn)
A: 212 to 214 °C

Q: Give me measured melting point, please, for this compound: COc1cccc(C2=NN(c3ccc(S(N)(=O)=O)cc3)C(c3ccc4c(c3)OCO4)C2)c1 (stereo not drawn)
A: 219 to 221 °C

Q: Give me measured melting point, please, for this compound: Cc1cccc(C2=NN(c3ccc(S(N)(=O)=O)cc3)C(c3ccc4c(c3)OCO4)C2)c1 (stereo not drawn)
A: 187 to 188 °C

Q: Give me measured melting point, please, for this compound: NS(=O)(=O)c1ccc(N2N=C(c3ccc(Br)cc3)CC2c2ccc3c(c2)OCCO3)cc1 (stereo not drawn)
A: 153 to 154 °C

Q: Give me measured melting point, please, for this compound: Cc1ccc(C2=NN(c3ccc(S(N)(=O)=O)cc3)C(c3ccc4c(c3)OCO4)C2)cc1C (stereo not drawn)
A: 179 to 180 °C

---

Reported IC50 values follow for various molecules
Tested on: SW620 cells
assayProcedure: MTT antiproliferation assay, SW620
Assay type: cell-based
reportedConditions: Homo sapiens, SW-620, 48 h, n = 3, read-out: IC50 ± SD SW620
Only the number, expressed in µM, is required.

Answered examples (10):
molecule	measuredNumber
Cc1ccc(C2=NN(c3ccc(S(N)(=O)=O)cc3)C(c3ccc4c(c3)OCCO4)C2)cc1C (stereo not shown)	4.54
NS(=O)(=O)c1ccc(N2N=C(c3cccc(F)c3)CC2c2ccc3c(c2)OCO3)cc1 (stereo not shown)	3.24
COc1cccc(C2=NN(c3ccc(S(N)(=O)=O)cc3)C(c3ccc4c(c3)OCCO4)C2)c1 (stereo not shown)	6.63
Cc1ccc(C2=NN(c3ccc(S(N)(=O)=O)cc3)C(c3ccc4c(c3)OCO4)C2)c(C)c1 (stereo not shown)	4.96
NS(=O)(=O)c1ccc(N2N=C(c3ccc(I)cc3)CC2c2ccc3c(c2)OCO3)cc1 (stereo not shown)	3.04
NS(=O)(=O)c1ccc(N2N=C(c3ccc(I)cc3)CC2c2ccc3c(c2)OCCO3)cc1 (stereo not shown)	2.17
NS(=O)(=O)c1ccc(N2N=C(c3ccccc3F)CC2c2ccc3c(c2)OCO3)cc1 (stereo not shown)	4.54
CCOc1ccc(C2=NN(c3ccc(S(N)(=O)=O)cc3)C(c3ccc4c(c3)OCO4)C2)cc1 (stereo not shown)	5.07
CCOc1ccc(C2=NN(c3ccc(S(N)(=O)=O)cc3)C(c3ccc4c(c3)OCCO4)C2)cc1 (stereo not shown)	6.12
Cc1cccc(C2=NN(c3ccc(S(N)(=O)=O)cc3)C(c3ccc4c(c3)OCO4)C2)c1 (stereo not shown)	3.88

Q: Give me measured IC50, please, for this molecule: NS(=O)(=O)c1ccc(N2N=C(c3ccc(Br)cc3)CC2c2ccc3c(c2)OCCO3)cc1 (stereo not shown)
A: 3.18

Q: Give me measured IC50, please, for this molecule: NS(=O)(=O)c1ccc(N2N=C(c3ccc(F)cc3)CC2c2ccc3c(c2)OCCO3)cc1 (stereo not shown)
A: 3.83

Q: Give me measured IC50, please, for this molecule: COc1cccc(C2=NN(c3ccc(S(N)(=O)=O)cc3)C(c3ccc4c(c3)OCO4)C2)c1 (stereo not shown)
A: 7.99

Q: Give me measured IC50, please, for this molecule: NS(=O)(=O)c1ccc(N2N=C(c3ccc(F)cc3F)CC2c2ccc3c(c2)OCCO3)cc1 (stereo not shown)
A: 4.48

Q: Give me measured IC50, please, for this molecule: Cc1ccc(C2=NN(c3ccc(S(N)(=O)=O)cc3)C(c3ccc4c(c3)OCO4)C2)cc1C (stereo not shown)
A: 4.34

Q: Give me measured IC50, please, for this molecule: NS(=O)(=O)c1ccc(N2N=C(c3ccccc3)CC2c2ccc3c(c2)OCCO3)cc1 (stereo not shown)
A: 4.56

---

# IC50 per entry for COX-1 (Homo sapiens)

compound	system	property	result
NS(=O)(=O)c1ccc(N2N=C(c3cccc(F)c3)CC2c2ccc3c(c2)OCCO3)cc1 (stereo not drawn)	COX-1 (Homo sapiens)	IC50	> 60 µM
NS(=O)(=O)c1ccc(N2N=C(c3ccc(F)cc3F)CC2c2ccc3c(c2)OCCO3)cc1 (stereo not drawn)	COX-1 (Homo sapiens)	IC50	> 60 µM
Cc1ccc(C2=NN(c3ccc(S(N)(=O)=O)cc3)C(c3ccc4c(c3)OCCO4)C2)cc1 (stereo not drawn)	COX-1 (Homo sapiens)	IC50	43.9 µM
NS(=O)(=O)c1ccc(N2N=C(c3ccc(Br)cc3)CC2c2ccc3c(c2)OCCO3)cc1 (stereo not drawn)	COX-1 (Homo sapiens)	IC50	26.6 µM
Cc1ccc(C2=NN(c3ccc(S(N)(=O)=O)cc3)C(c3ccc4c(c3)OCO4)C2)cc1C (stereo not drawn)	COX-1 (Homo sapiens)	IC50	58.1 µM
Cc1ccc(C2=NN(c3ccc(S(N)(=O)=O)cc3)C(c3ccc4c(c3)OCO4)C2)c(C)c1 (stereo not drawn)	COX-1 (Homo sapiens)	IC50	> 60 µM
COc1ccc(C2=NN(c3ccc(S(N)(=O)=O)cc3)C(c3ccc4c(c3)OCCO4)C2)cc1 (stereo not drawn)	COX-1 (Homo sapiens)	IC50	> 60 µM
NS(=O)(=O)c1ccc(N2N=C(c3ccc(I)cc3)CC2c2ccc3c(c2)OCO3)cc1 (stereo not drawn)	COX-1 (Homo sapiens)	IC50	25.8 µM
NS(=O)(=O)c1ccc(N2N=C(c3ccc(F)cc3)CC2c2ccc3c(c2)OCCO3)cc1 (stereo not drawn)	COX-1 (Homo sapiens)	IC50	38.4 µM
CCOc1ccc(C2=NN(c3ccc(S(N)(=O)=O)cc3)C(c3ccc4c(c3)OCO4)C2)cc1 (stereo not drawn)	COX-1 (Homo sapiens)	IC50	21.1 µM

Q: Give me measured IC50, please, for this compound: Cc1ccc(C2=NN(c3ccc(S(N)(=O)=O)cc3)C(c3ccc4c(c3)OCO4)C2)cc1 (stereo not drawn)
A: 48.1 µM

Q: Give me measured IC50, please, for this compound: NS(=O)(=O)c1ccc(N2N=C(c3ccccc3)CC2c2ccc3c(c2)OCCO3)cc1 (stereo not drawn)
A: > 60 µM

Q: Give me measured IC50, please, for this compound: NS(=O)(=O)c1ccc(N2N=C(c3ccccc3F)CC2c2ccc3c(c2)OCO3)cc1 (stereo not drawn)
A: > 60 µM

Q: Give me measured IC50, please, for this compound: Cc1cccc(C2=NN(c3ccc(S(N)(=O)=O)cc3)C(c3ccc4c(c3)OCO4)C2)c1 (stereo not drawn)
A: 29.8 µM

Q: Give me measured IC50, please, for this compound: Cc1ccc(C2=NN(c3ccc(S(N)(=O)=O)cc3)C(c3ccc4c(c3)OCCO4)C2)cc1C (stereo not drawn)
A: > 60 µM

Q: Give me measured IC50, please, for this compound: NS(=O)(=O)c1ccc(N2N=C(c3cccc(F)c3)CC2c2ccc3c(c2)OCO3)cc1 (stereo not drawn)
A: 52.9 µM

Q: Give me measured IC50, please, for this compound: NS(=O)(=O)c1ccc(N2N=C(c3ccccc3F)CC2c2ccc3c(c2)OCCO3)cc1 (stereo not drawn)
A: > 60 µM

Q: Give me measured IC50, please, for this compound: Cc1cc(C2=NN(c3ccc(S(N)(=O)=O)cc3)C(c3ccc4c(c3)OCCO4)C2)ccc1F (stereo not drawn)
A: > 60 µM
